Can you tell me self-cleavage for the items I'm about to list?
B1: Hairpin Ribozyme (parent)
chain: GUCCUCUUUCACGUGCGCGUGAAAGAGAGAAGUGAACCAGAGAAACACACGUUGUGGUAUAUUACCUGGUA

# Variants of: B1
# measurementDescription: self-cleavage, relative activity (ratio to wild type); higher = more cleavage; co-transcriptional

{"columns": ["variantString", "reportedValue"],
 "data": [
  ["A31C A71C", 0.202],
  ["G42U C46U", 0.205]
]}

With those in mind, consider the next variant.
Per the record, C16A C38A has self-cleavage of 0.203
